Test system: RELA (p65) subunit of heterodimer;p50 subunit (Homo sapiens;Homo sapiens)
Assay: EMSA-Seq
Conditions: Footprinting/EMSA: 10 mM Tris pH 7.4, 75 mM NaCl, 1 mM EDTA, 1 mM DTT, 200 ug/ml BSA, 0.005% NP-40, EMSA-Seq: 12 mM HEPES pH 7.8, 75 mM KCl, 4 mM …
Can you tell me binding signal for the items I'm about to list?
A number alone suffices; assume z-score.

I am curious: what binding signal value has been reported for CTGGGGATTTA 11-mer in EMSA-Seq ligands ?
24.2

I am curious: what binding signal value has been reported for AGGGGAAGTTA 11-mer in EMSA-Seq ligands ?
35.4

I am curious: what binding signal value has been reported for AGGGGGATCTG 11-mer in EMSA-Seq ligands ?
23.1

I am curious: what binding signal value has been reported for AGGAAATTCCG 11-mer in EMSA-Seq ligands ?
20.4

====

System: RELARELA (p65 homodimer) (Homo sapiens)
Test: UV laser footprinting
Conditions: Footprinting/EMSA: 10 mM Tris pH 7.4, 75 mM NaCl, 1 mM EDTA, 1 mM DTT, 200 ug/ml BSA, 0.005% NP-40, EMSA-Seq: 12 mM HEPES pH 7.8, 75 mM KCl, 4 mM …
TEST_READOUT: Kd (nM)
A number alone suffices; assume nM.

I am curious: what Kd value has been reported for AGGAAATTCCG footprint probe ?
3.25

====

Can you tell me pKd for the items I'm about to list?
Tested on: RELA (p65) subunit of heterodimer;p52 subunit (Homo sapiens;Homo sapiens)
Assay: UV laser footprinting
Conditions: Footprinting/EMSA: 10 mM Tris pH 7.4, 75 mM NaCl, 1 mM EDTA, 1 mM DTT, 200 ug/ml BSA, 0.005% NP-40, EMSA-Seq: 12 mM HEPES pH 7.8, 75 mM KCl, 4 mM …
Remember the convention: pKd equals -log10 of concentration in molar.

I am curious: what pKd value has been reported for AGGAAATTCCG footprint probe ?
8.77

I am curious: what pKd value has been reported for CTGGGGATTTA footprint probe ?
7.86

I am curious: what pKd value has been reported for AGGGGAAGTTA footprint probe ?
7.70

I am curious: what pKd value has been reported for AGGGGGATCTG footprint probe ?
8.70

====

Test system: RELA (p65) subunit of heterodimer;p50 subunit (Homo sapiens;Homo sapiens)
Assay: UV laser footprinting
Details: Footprinting/EMSA: 10 mM Tris pH 7.4, 75 mM NaCl, 1 mM EDTA, 1 mM DTT, 200 ug/ml BSA, 0.005% NP-40, EMSA-Seq: 12 mM HEPES pH 7.8, 75 mM KCl, 4 mM …
Can you tell me Kd for the items I'm about to list?
A number alone suffices; assume nM.

I am curious: what Kd value has been reported for AGGAAATTCCG footprint probe ?
4.6

I am curious: what Kd value has been reported for CTGGGGATTTA footprint probe ?
16

I am curious: what Kd value has been reported for AGGGGAAGTTA footprint probe ?
26

I am curious: what Kd value has been reported for AGGGGGATCTG footprint probe ?
10.5
